This collection of values is drawn from patent US8629141B2.

Entries annotated with measured pIC50
Molecular target: recombinant human His-tagged MDM2 protein (residues 1-118) (Homo sapiens (Human))
Experiment: Fluorescence-polarization MDM2 competitive binding assay
Settings: FP competition with PMDM6-F peptide (1 nM), MDM2 10 nM, 3 h incubation; read-out: Binding affinities to MDM2 (1-118) IC50
pIC50: −log10 of the molar value.

These recorded examples may help you get a feel for the data.
{"columns": ["compound", "pIC50"],
 "data": [
  ["O=C(NCCN1CCOCC1)[C@@H]1NC2(CCC(F)(F)CC2)[C@@]2(C(=O)Nc3cc(Cl)ccc32)[C@H]1c1cccc(Cl)c1F", "> 6.00"],
  ["O=C(O)[C@@H]1NC2(CCCCC2)[C@@]2(C(=O)Nc3cc(Cl)ccc32)[C@H]1c1cccc(Cl)c1F", "> 6.30"],
  ["O=C(NCCN1CCOCC1)[C@@H]1NC2(CCC(F)(F)CC2)[C@]2(C(=O)Nc3cc(Cl)ccc32)[C@H]1c1cccc(Cl)c1F", "> 5.30"]
]}

// query // map O=C(NC1CCC(O)CC1)[C@@H]1NC2(CCCCC2)[C@@]2(C(=O)Nc3cc(Cl)ccc32)[C@H]1c1cccc(Cl)c1F (stereo partly shown) to recorded pIC50 (system: recombinant human His-tagged MDM2 protein (residues 1-118) (Homo sapiens (Human)))
// result > 7.00

====

Molecular target: recombinant human His-tagged MDM2 protein (residues 1-118) (Homo sapiens (Human), UniProt Q00987)
Experiment: Fluorescence-polarization MDM2 competitive binding assay
Settings: FP competition with PMDM6-F peptide; read-out: Binding affinities to MDM2 (1-118) Ki
property_label: pKi
pKi field: float, defined as -log10 of concentration (mol/L).

// query May I ask what pKi has been recorded for CC1(C)N[C@@H](C(=O)NC2CCC(O)CC2)[C@H](c2cccc(Cl)c2F)[C@]12C(=O)Nc1cc(Cl)ccc12 (stereo partly shown) ?
// result 7.58

====

Target: recombinant human His-tagged MDM2 protein (residues 1-118) (Homo sapiens (Human))
Assay: Fluorescence-polarization MDM2 competitive binding assay
Settings: FP competition with PMDM6-F peptide (1 nM), MDM2 10 nM, 3 h incubation; read-out: Binding affinities to MDM2 (1-118) IC50
property_label: IC50

These recorded examples may help you get a feel for the data.
{"columns": ["compound", "IC50"],
 "data": [
  ["CNC(=O)[C@@H]1NC2(CCCCC2)[C@@]2(C(=O)Nc3cc(Cl)ccc32)[C@H]1c1cc(Cl)cnc1OC(C)(C)C(=O)O", "> 10 µM"],
  ["CNC(=O)[C@@H]1NC2(CCCCC2)[C@@]2(C(=O)Nc3cc(Cl)ccc32)[C@H]1c1cc(Cl)ccc1OC(C)(C)C(=O)O", "> 10 µM"]
]}

// query May I ask what IC50 has been recorded for O=C(NC1CCC(O)CC1)[C@@H]1NC[C@@]2(C(=O)Nc3cc(Cl)ccc32)[C@H]1c1cccc(Cl)c1F (stereo partly drawn) ?
// result > 10 µM

// query May I ask what IC50 has been recorded for CS(=O)(=O)CCNC(=O)[C@@H]1NC2(CCCCC2)[C@@]2(C(=O)Nc3cc(Cl)ccc32)[C@H]1c1cccc(Cl)c1F ?
// result < 0.1 µM

// query May I ask what IC50 has been recorded for O=C(NCCN1CCOCC1)[C@@H]1NC2(CCOCC2)[C@@]2(C(=O)Nc3cc(Cl)ccc32)[C@H]1c1cccc(Cl)c1F ?
// result < 5 µM

// query May I ask what IC50 has been recorded for O=C(NC1CN(C(=O)O)C1)[C@@H]1NC2(CCCCC2)[C@@]2(C(=O)Nc3cc(Cl)ccc32)[C@H]1c1cccc(Cl)c1F ?
// result < 0.1 µM

====

Molecular target: recombinant human His-tagged MDM2 protein (residues 1-118) (Homo sapiens (Human))
Assay: Fluorescence-polarization MDM2 competitive binding assay
Conditions: FP competition with PMDM6-F peptide (1 nM), MDM2 10 nM, 3 h incubation; read-out: Binding affinities to MDM2 (1-118) IC50
pIC50: −log10 of the molar value.
Entries annotated with measured pIC50

These recorded examples may help you get a feel for the data.
{"columns": ["molecule", "pIC50"],
 "data": [
  ["O=C(NCCN1CCOCC1)[C@@H]1NC2(CCCCC2)[C@@]2(C(=O)Nc3cc(Cl)ccc32)[C@H]1c1cccc(Cl)c1F", "> 7.00"],
  ["CC1(C)N[C@@H](C(=O)NC2CCC(O)CC2)[C@H](c2cccc(Cl)c2F)[C@]12C(=O)Nc1cc(Cl)ccc12 (stereo partly drawn)", 6.70],
  ["CCC1(CC)N[C@@H](C(=O)NCCN2CCOCC2)[C@H](c2cccc(Cl)c2F)[C@]12C(=O)Nc1cc(Cl)ccc12", "> 6.00"],
  ["CC1(O)CC(NC(=O)[C@@H]2NC3(CCCCC3)[C@@]3(C(=O)Nc4cc(Cl)ccc43)[C@H]2c2cccc(Cl)c2F)C1 (stereo partly drawn)", "> 7.00"],
  ["O=C(NCc1nnn[nH]1)[C@@H]1NC2(CCCCC2)[C@@]2(C(=O)Nc3cc(Cl)ccc32)[C@H]1c1cccc(Cl)c1F", "> 7.00"]
]}

Consider the record given below.
// query May I ask what pIC50 has been recorded for CS(=O)(=O)CCN1CCC(NC(=O)[C@@H]2NC3(CCCCC3)[C@@]3(C(=O)Nc4cc(Cl)ccc43)[C@H]2c2cccc(Cl)c2F)CC1 ?
// result > 7.00
